target: HIV-1 HXB2 envelope glycoprotein gp41 (N-trimer of the prehairpin intermediate) (HIV-1 strain HXB2, UniProt P04578 512-856); experiment: cell-based or functional assay
Bridges are numbered along the chain shown (N, C = ends). Roman numbers before positions name the chains, in order. [ ]: non-standard residue; d: D form.
Please provide measured IC50, HXB2 pseudovirion entry for the entries that follow.
Answers are plain numbers, in nM.

Please review the following examples before continuing.
Ac-[dH][dP][dC][dD][dY][dP][dE][dW][dQ][dW][dL][dC][dE][dL]GK-NH2 (disulfide 3-12 (inferred); not fully specified (residue 16)) [Chol-PEG12-PIE12 (monomer)] :: 11
Ac-[dH][dP][dC][dD][dY][dP][dE][dW][dQ][dW][dL][dC][dE][dL]GK-NH2 (disulfide 3-12 (inferred); not fully specified (residue 16)) [Chol-PEG24-PIE12 (monomer)] :: 0.4

Please state IC50, HXB2 pseudovirion entry for every binder in the list that follows.
1. C5C-PIE12-trimer (disulfide I:3-I:12, II:3-II:12 (inferred); also: trimer: C-terminal Lys linked by PEG5 spacers) peptide 1: Ac-[dH][dP][dC][dD][dY][dP][dE][dW][dQ][dW][dL][dC][dE][dL]G[dK]-NH2 peptide 2: Ac-[dH][dP][dC][dD][dY][dP][dE][dW][dQ][dW][dL][dC][dE][dL]G[dK][dK]-NH2
2. Ac-[dH][dP][dC][dD][dY][dP][dE][dW][dQ][dW][dL][dC][dE][dL]GK-NH2 (disulfide 3-12 (inferred); not fully specified (residue 16)) [Chol-PEG2-PIE12 (monomer)]
3. Ac-[dH][dP][dC][dD][dY][dP][dE][dW][dQ][dW][dL][dC][dE][dL]GK-NH2 (disulfide 3-12 (inferred); not fully specified (residue 16); also: trimer on scaffold via PEG4, fourth arm PEG36 (PEG24 + PEG12 through D-Cys) carrying thiocholesterol) [Chol-PEG36-PIE12-trimer]

[0.33, 58, 0.0054]
